Documented IC50, inhibition of ADP-induced platelet aggregation across a set of binders
# ASSAY TARGET: integrin αIIbβ3 (UniProt P08514 32-1039; P05106 27-788)
# Sequence (P08514 32-1039, chain 1 of 2): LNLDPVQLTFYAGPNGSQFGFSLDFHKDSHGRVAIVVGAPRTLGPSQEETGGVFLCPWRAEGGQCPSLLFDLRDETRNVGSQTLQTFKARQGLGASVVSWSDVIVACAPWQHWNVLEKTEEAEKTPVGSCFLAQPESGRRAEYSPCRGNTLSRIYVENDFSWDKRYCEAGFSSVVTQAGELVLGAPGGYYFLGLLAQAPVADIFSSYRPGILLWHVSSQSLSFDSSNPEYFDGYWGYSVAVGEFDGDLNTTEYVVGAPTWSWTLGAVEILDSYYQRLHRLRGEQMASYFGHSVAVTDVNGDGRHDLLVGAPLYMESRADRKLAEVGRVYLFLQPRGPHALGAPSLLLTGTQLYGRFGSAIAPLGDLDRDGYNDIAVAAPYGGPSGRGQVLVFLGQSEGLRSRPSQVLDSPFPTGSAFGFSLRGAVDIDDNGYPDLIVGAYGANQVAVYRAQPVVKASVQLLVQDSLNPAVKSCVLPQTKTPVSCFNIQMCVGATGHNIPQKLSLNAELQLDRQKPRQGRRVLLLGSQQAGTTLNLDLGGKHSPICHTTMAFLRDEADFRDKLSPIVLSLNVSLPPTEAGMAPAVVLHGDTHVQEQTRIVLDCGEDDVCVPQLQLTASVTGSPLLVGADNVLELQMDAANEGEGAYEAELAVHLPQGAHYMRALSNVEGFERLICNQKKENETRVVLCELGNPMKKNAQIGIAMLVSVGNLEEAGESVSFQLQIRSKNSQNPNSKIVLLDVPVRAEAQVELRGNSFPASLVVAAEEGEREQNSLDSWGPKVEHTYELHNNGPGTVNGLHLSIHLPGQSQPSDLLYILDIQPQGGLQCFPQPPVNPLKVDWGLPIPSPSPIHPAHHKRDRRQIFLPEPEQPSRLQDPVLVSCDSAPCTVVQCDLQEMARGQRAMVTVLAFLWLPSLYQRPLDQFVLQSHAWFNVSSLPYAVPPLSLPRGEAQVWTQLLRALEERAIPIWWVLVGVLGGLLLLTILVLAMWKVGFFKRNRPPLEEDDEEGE
# Sequence (P05106 27-788, chain 2 of 2): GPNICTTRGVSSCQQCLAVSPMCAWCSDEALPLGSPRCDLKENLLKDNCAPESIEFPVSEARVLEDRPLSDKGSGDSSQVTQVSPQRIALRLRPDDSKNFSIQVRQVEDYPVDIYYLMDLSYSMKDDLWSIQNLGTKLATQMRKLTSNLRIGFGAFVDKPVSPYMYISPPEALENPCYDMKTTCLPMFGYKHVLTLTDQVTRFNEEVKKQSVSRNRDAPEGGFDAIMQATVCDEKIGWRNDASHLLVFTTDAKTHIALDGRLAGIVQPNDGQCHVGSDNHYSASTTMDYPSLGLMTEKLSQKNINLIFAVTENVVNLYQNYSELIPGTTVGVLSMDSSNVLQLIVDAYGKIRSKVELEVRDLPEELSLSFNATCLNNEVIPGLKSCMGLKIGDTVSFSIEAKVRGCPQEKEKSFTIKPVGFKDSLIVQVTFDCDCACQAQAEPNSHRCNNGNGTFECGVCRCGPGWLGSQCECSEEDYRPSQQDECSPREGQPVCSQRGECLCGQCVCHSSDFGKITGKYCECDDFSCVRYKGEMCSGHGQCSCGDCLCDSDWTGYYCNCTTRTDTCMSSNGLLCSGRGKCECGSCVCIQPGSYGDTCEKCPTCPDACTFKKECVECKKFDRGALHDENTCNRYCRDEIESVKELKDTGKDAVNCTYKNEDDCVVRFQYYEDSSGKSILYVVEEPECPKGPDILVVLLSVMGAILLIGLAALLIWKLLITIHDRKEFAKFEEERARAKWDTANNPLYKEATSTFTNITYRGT
# MEASUREMENT DESCRIPTION: cell-based or functional assay

- BINDER: "FNIII 10 C-X7-C (SEQ ID NO: 8, VCPRGDWNECSK) (designed binder, Engineered intradomain disulfide bond Cys1491-Cys1499; exact N-terminus uncertain) HHHHHHVSDVPRDLEVVAATPTSLLISWDAPAVTVRYYRITYGETGGNSPVQEFTVPGSKSTATISGLKPGVDYTITVYAVCPRGDWNECSKPISINYRT"
  ENDPOINT VALUE: "~10 µM"
- BINDER: "FNIII 10 C-X7-C (SEQ ID NO: 6, VCPRGDMPDCSK) (designed binder) HHHHHHVSDVPRDLEVVAATPTSLLISWDAPAVTVRYYRITYGETGGNSPVQEFTVPGSKSTATISGLKPGVDYTITVYAVCPRGDMPDCSKPISINYRT"
  ENDPOINT VALUE: "~62 µM"
- BINDER: "Control FNIII 10 mutant (SEQ ID NO: 50, VTPRGDWNEGSK) (designed binder, exact N-terminus uncertain; also called FNIII 10 variant) HHHHHHVSDVPRDLEVVAATPTSLLISWDAPAVTVRYYRITYGETGGNSPVQEFTVPGSKSTATISGLKPGVDYTITVYAVTPRGDWNEGSKPISINYRT"
  ENDPOINT VALUE: "> 6.45 µM"
- BINDER: "FNIII 10 variant (SEQ ID NO: 48, VTPRGDMPDSSK) (designed binder, also called FNIII 10 (PRGDMPD) protein; FNIII 10 PRGDMPD variant) HHHHHHVSDVPRDLEVVAATPTSLLISWDAPAVTVRYYRITYGETGGNSPVQEFTVPGSKSTATISGLKPGVDYTITVYAVTPRGDMPDSSKPISINYRT"
  ENDPOINT VALUE: "> 22.2 µM"

[ask] Any idea what IC50, inhibition of ADP-induced platelet aggregation was measured for FNIII 10 C-X7-C (SEQ ID NO: 10, VCARGDNPDCSK) (designed binder) HHHHHHVSDVPRDLEVVAATPTSLLISWDAPAVTVRYYRITYGETGGNSPVQEFTVPGSKSTATISGLKPGVDYTITVYAVCARGDNPDCSKPISINYRT ?
[reply] > 25.5 µM

Values from patent US20150218251A1
